Reference source: patent US20130029928A1

Procedure summary: Phase I study CXR1002-001: plasma pharmacokinetics (LC-MS/MS)
Format: in vivo, human
Condition context: human, plasma, po, 1200 mg, Patient 036, 1200 mg weekly oral dose, Time 336 hr (Day 15); read-out: Concentration (plasma level)
Excerpt: PK samples, PD (fasting) samples, blood glucose, and blood triglyceride samples, were taken over a 6-week period. Dose limiting toxicity (DLT) will be based on the toxicity assessments over the first 3-week period of the repeat dosing schedule. […]
Value type: concentration at 336 hr (µM)

{"columns": ["Mol", "Meas value"],
 "data": [
  ["O=C(O)C(F)(F)C(F)(F)C(F)(F)C(F)(F)C(F)(F)C(F)(F)C(F)(F)F", 557]
]}

---

Procedure summary: Phase I study CXR1002-001: plasma pharmacokinetics (LC-MS/MS)
Format: in vivo, human
Condition context: human, plasma, oral, 50 mg, Patient 003 Dose 50 mg; 72 hr

{"columns": ["Mol", "concentration at 72 h, µM"],
 "data": [
  ["O=C(O)C(F)(F)C(F)(F)C(F)(F)C(F)(F)C(F)(F)C(F)(F)C(F)(F)F", 18.4]
]}

---

Procedure summary: Phase I study CXR1002-001: plasma pharmacokinetics (LC-MS/MS)
Format: in vivo, human
Condition context: human, plasma, oral, 450 mg, Patient 017 Dose 450 mg; 339 hr; read-out: Concentration

{"columns": ["Mol", "concentration at 339 h"],
 "data": [
  ["O=C(O)C(F)(F)C(F)(F)C(F)(F)C(F)(F)C(F)(F)C(F)(F)C(F)(F)F", "342 µM"]
]}

---

Procedure summary: Phase I study CXR1002-001: plasma pharmacokinetics (LC-MS/MS)
Assay type: in vivo, human
Condition context: human, plasma, oral, 300 mg, Patient 014 Dose 300 mg; 3 hr; read-out: Concentration
Value type: concentration at 3 h (µM)

{"columns": ["Mol", "Value type", "Unit descriptor", "Meas value"],
 "data": [
  ["O=C(O)C(F)(F)C(F)(F)C(F)(F)C(F)(F)C(F)(F)C(F)(F)C(F)(F)F", "concentration at 3 h", "µM", 121]
]}

---

Procedure summary: Phase I study CXR1002-001: plasma pharmacokinetics (LC-MS/MS)
Type: in vivo, human
Condition context: human, plasma, oral, 50 mg, Patient 001 Dose 50 mg; 360 hr (Day 15); read-out: Concentration

{"columns": ["Mol", "concentration at 360 hr / µM"],
 "data": [
  ["O=C(O)C(F)(F)C(F)(F)C(F)(F)C(F)(F)C(F)(F)C(F)(F)C(F)(F)F", 8.63]
]}

---

Procedure summary: Phase I study CXR1002-001: plasma pharmacokinetics (LC-MS/MS)
Assay type: in vivo, human
Condition context: human, plasma, oral, 600 mg, Patient 024, 600 mg, person, plasma, 338 hr; read-out: Concentration

{"columns": ["Mol", "concentration at 338 h"],
 "data": [
  ["O=C(O)C(F)(F)C(F)(F)C(F)(F)C(F)(F)C(F)(F)C(F)(F)C(F)(F)F", "578 µM"]
]}

---

Procedure summary: Phase I study CXR1002-001: plasma pharmacokinetics (LC-MS/MS)
Format: in vivo, human
Condition context: human, plasma, oral, 600 mg, Patient 020, 600 mg, person, plasma, 24 hr (Day 2); read-out: Concentration
Value type: concentration at 24 h

{"columns": ["Compound", "Value type", "Meas value"],
 "data": [
  ["O=C(O)C(F)(F)C(F)(F)C(F)(F)C(F)(F)C(F)(F)C(F)(F)C(F)(F)F [CXR1002]", "concentration at 24 h", "413 µM"]
]}

---

Procedure summary: Phase I study CXR1002-001: plasma pharmacokinetics (LC-MS/MS)
Assay type: in vivo, human
Condition context: human, plasma, oral, 450 mg, Patient 015 Dose 450 mg; 508 hr; read-out: Concentration
Value type: concentration at 508 h (µM)

{"columns": ["Molecule", "Unit descriptor", "Meas value"],
 "data": [
  ["O=C(O)C(F)(F)C(F)(F)C(F)(F)C(F)(F)C(F)(F)C(F)(F)C(F)(F)F [CXR1002]", "µM", 513]
]}

---

Procedure summary: Phase I study CXR1002-001: plasma pharmacokinetics (LC-MS/MS)
Type: in vivo, human
Condition context: human, plasma, oral, 50 mg, Patient 003 Dose 50 mg; 696 hr (Day 29); read-out: Concentration
Value type: concentration at 696 h (µM)

{"columns": ["Molecule", "Value type", "Meas value"],
 "data": [
  ["O=C(O)C(F)(F)C(F)(F)C(F)(F)C(F)(F)C(F)(F)C(F)(F)C(F)(F)F [CXR1002]", "concentration at 696 h", 5]
]}

---

Procedure summary: Phase I study CXR1002-001: plasma pharmacokinetics (LC-MS/MS)
Assay type: in vivo, human
Condition context: human, plasma, oral, 100 mg, Patient 007 Dose 100 mg; 336 hr (Day 15); read-out: Concentration

{"columns": ["Mol", "concentration at 336 hr [µM]"],
 "data": [
  ["O=C(O)C(F)(F)C(F)(F)C(F)(F)C(F)(F)C(F)(F)C(F)(F)C(F)(F)F", 19.2]
]}

---

Procedure summary: Phase I study CXR1002-001: plasma pharmacokinetics (LC-MS/MS)
Assay type: in vivo, human
Condition context: female, human, plasma, oral, Female, plasma, 171 hr; read-out: Concentration
Value type: concentration at 171 h (µM)

{"columns": ["Mol", "Value type", "Meas value"],
 "data": [
  ["O=C(O)C(F)(F)C(F)(F)C(F)(F)C(F)(F)C(F)(F)C(F)(F)C(F)(F)F", "concentration at 171 h", 253]
]}

---

Procedure summary: Phase I study CXR1002-001: plasma pharmacokinetics (LC-MS/MS)
Assay type: in vivo, human
Condition context: human, plasma, oral, 1200 mg, Patient 033, 1200 mg, person, plasma, 507 hr; read-out: Concentration

{"columns": ["Mol", "Unit descriptor", "concentration at 507 hr"],
 "data": [
  ["O=C(O)C(F)(F)C(F)(F)C(F)(F)C(F)(F)C(F)(F)C(F)(F)C(F)(F)F", "µM", 1060]
]}

---

Procedure summary: Phase I study CXR1002-001: plasma pharmacokinetics (LC-MS/MS)
Format: in vivo, human
Condition context: human, plasma, oral, 950 mg, Patient 029, 950 mg, person, plasma, 24 hr (Day 2); read-out: Concentration

{"columns": ["Mol", "concentration at 24 h, µM"],
 "data": [
  ["O=C(O)C(F)(F)C(F)(F)C(F)(F)C(F)(F)C(F)(F)C(F)(F)C(F)(F)F", 353]
]}

---

Procedure summary: Phase I study CXR1002-001: plasma pharmacokinetics (LC-MS/MS)
Assay type: in vivo, human
Condition context: human, plasma, oral, 950 mg, Patient 029, 950 mg, person, plasma, 674 hr; read-out: Concentration
Value type: concentration at 674 h (µM)

{"columns": ["Mol", "Meas value"],
 "data": [
  ["O=C(O)C(F)(F)C(F)(F)C(F)(F)C(F)(F)C(F)(F)C(F)(F)C(F)(F)F", 841]
]}

---

Procedure summary: Phase I study CXR1002-001: plasma pharmacokinetics (LC-MS/MS)
Assay type: in vivo, human
Condition context: human, plasma, oral, 600 mg, Patient 018, 600 mg, person, plasma, 3 hr; read-out: Concentration

{"columns": ["Mol", "concentration at 3 h"],
 "data": [
  ["O=C(O)C(F)(F)C(F)(F)C(F)(F)C(F)(F)C(F)(F)C(F)(F)C(F)(F)F", "280 µM"]
]}

---

Procedure summary: Phase I study CXR1002-001: plasma pharmacokinetics (LC-MS/MS)
Assay type: in vivo, human
Condition context: human, plasma, oral, 200 mg, Patient 008 Dose 200 mg; 528 hr (Day 23); read-out: Concentration
Value type: concentration at 528 h (µM)

{"columns": ["Mol", "Meas value"],
 "data": [
  ["O=C(O)C(F)(F)C(F)(F)C(F)(F)C(F)(F)C(F)(F)C(F)(F)C(F)(F)F", 285]
]}

---

Procedure summary: Phase I study CXR1002-001: plasma pharmacokinetics (LC-MS/MS)
Assay type: in vivo, human
Condition context: human, plasma, oral, 600 mg, Patient 024, 600 mg, person, plasma, 3 hr; read-out: Concentration
Value type: concentration at 3 h (µM)

{"columns": ["Mol", "Meas value"],
 "data": [
  ["O=C(O)C(F)(F)C(F)(F)C(F)(F)C(F)(F)C(F)(F)C(F)(F)C(F)(F)F", 188]
]}

---

Procedure summary: Phase I study CXR1002-001: plasma pharmacokinetics (LC-MS/MS)
Assay type: in vivo, human
Condition context: human, plasma, oral, 50 mg, Patient 002 Dose 50 mg; 864 hr (Day 36); read-out: Concentration
Value type: concentration at 864 h (µM)

{"columns": ["Compound", "Value type", "Meas value"],
 "data": [
  ["O=C(O)C(F)(F)C(F)(F)C(F)(F)C(F)(F)C(F)(F)C(F)(F)C(F)(F)F [CXR1002]", "concentration at 864 h", 20.1]
]}
